Reference source for all entries: paper PMC7483518

Tested on: HLA-A*11:01 single chain protein
Assay type: biochemical, Human
Parameters: unit not given beside the values
Settings: EASY MHC-I A*11:01, gel 2019-07-17 lr1028-1036 5min; replicate 2 (lanes 15-28)
Criterion: EZ50kD (normalised: EBV1101 = 1, EBV0201 = 0) strictly less than -0.03. Met: met. Not met: not met.

Examples with answers:
FGRAKLLGAEE [LR1036]: met
KITDFGRAKLL [LR1032]: not met
DFGRAKLLGAE [LR1035]: met
TDFGRAKLLGA [LR1034]: met

Now examine the next entry.
Query :: Item ITDFGRAKLLG [LR1033] : EZ50kD (normalised: EBV1101 = 1, EBV0201 = 0) beneath -0.03, strictly?
Result :: met
